Data origin: patent US20030068675

study target: T1, ZFP SBS#1247 (synthetic)
T1 chain: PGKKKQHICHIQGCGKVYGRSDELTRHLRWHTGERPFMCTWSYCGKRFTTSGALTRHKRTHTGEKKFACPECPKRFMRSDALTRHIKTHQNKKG
measurement notes: EMSA
cond: tags: MBP fusion
quantity: pKd
Numbers only, as −log10 of the molar value.

// pKd value for GTGGTTGCG (dsDNA) DNA 1: GTGGTTGCG DNA 2: CGCAACCAC : 9.93
